Reference source for all entries: paper PMC4613240

tested on: Madin-Darby canine kidney cell line (MDCK); assay: MTT cytotoxicity (nephrotoxicity/selectivity) assay, MDCK; type: cell-based; settings: Canis lupus familiaris, maximal tested concentration 20.0 μM, toxicity to MDCK kidney cells
pIC50: −log10 of the molar value.
readout.label: pIC50

Here are 2 compounds together with their reported answers.
[
  {
    "compound": "Cc1nc(C)c(COC(=O)[C@]23CCC(C)(C)CC2C2=CCC4[C@@]5(C)CC[C@H](O)C(C)(C)C5CC[C@@]4(C)[C@]2(C)CC3)nc1C (stereo partly drawn) [Compound 1a]",
    "readout.label": "pIC50",
    "reported": "< 4.70"
  },
  {
    "compound": "C=C(C)[C@@H]1CC[C@]2(C(=O)OCc3nc(C)c(C)nc3C)CC[C@]3(C)C(CCC4[C@@]5(C)CC[C@H](O)C(C)(C)C5CC[C@]43C)C12 (stereo partly drawn) [Compound 4a]",
    "readout.label": "pIC50",
    "reported": "< 4.70"
  }
]

Per the record, C=C(C)C1CCC2(C(=O)O)CCC3(C)C(CCC4C5(C)CCC(OC(=O)c6nc(C)c(C)nc6C)C(C)(C)C5CCC43C)C12 (stereo not drawn) [Compound 4d] has pIC50 of < 4.70
